Data origin, for the record: patent US5235061A

- Test system: Botryosphaeria dothidea Macrophoma sp.
- TEST METHOD NOTES: In vitro percent disease control (radii of spore growth on agar)
- Format: cell-based
- TEST PARAMETERS: Botryosphaeria dothidea, 50 ppm; read-out: % controlled, Bo.do (Ma.)
OBSERVABLE: inhibition of growth at 50 ppm (%)
Provide only the numeric value, understood in %.

Give the value of inhibition of growth at 50 ppm reported for the following: CCOc1ccc([Si](C)(C)C[Si](Cn2cncn2)(c2ccc(F)cc2)c2ccc(Cl)cc2)cc1 (centres unmarked)
74

Supply recorded inhibition of growth at 50 ppm for C=CC[Si](C)(Cn1cncn1)C[Si](CC=C)(c1ccccc1)c1ccc(F)cc1 (centres unmarked) here.
79

Supply reported inhibition of growth at 50 ppm belonging to this compound: C[Si](C)(C[Si](C)(Cn1cncn1)c1ccc(Cl)cc1)c1ccc(Cl)cc1 (centres unmarked)
80

Annotate the compound C[Si](C)(C)C[Si](C)(Cn1cncn1)c1ccc(F)cc1 (centres unmarked) with its measured inhibition of growth at 50 ppm.
69

Complete the entry with inhibition of growth at 50 ppm for CCOc1ccc([Si](C)(Cn2cncn2)C[Si](C)(C)c2ccc(F)cc2)cc1 (centres unmarked)
40

* * *

- System: Botryosphaeria dothidea Macrophoma sp.
- TEST METHOD NOTES: In vitro percent disease control (radii of spore growth on agar)
- Assay type: cell-based
- TEST PARAMETERS: Botryosphaeria dothidea, 50 ppm; read-out: % controlled, Bo.do (Ma.)
OBSERVABLE: inhibition of growth at 50 ppm (%)
The figure you give is taken to be in %; do not add the unit.

Annotate the compound C=CC[Si](C[Si](C)(Cn1cncn1)c1ccc(F)cc1)(c1ccc(F)cc1)c1ccc(F)cc1 (stereo not drawn) with its measured inhibition of growth at 50 ppm.
74

Return inhibition of growth at 50 ppm for the following compound: C[Si](C)(C[Si](Cn1cncn1)(c1ccc(Cl)cc1)c1ccc(Cl)cc1)c1ccc(F)cc1
54

Provide inhibition of growth at 50 ppm value for the following compound: C=CC[Si](CC=C)(Cn1cncn1)C[Si](CC=C)(c1ccc(F)cc1)c1ccc(-c2ccccc2)cc1 (stereo not drawn)
100

Identify inhibition of growth at 50 ppm associated with the compound C=CC[Si](C)(Cn1cncn1)C[Si](CC=C)(c1ccccc1)c1ccc(-c2ccccc2)cc1 (stereo not drawn)
100

Find the measured inhibition of growth at 50 ppm of C[Si](C)(C)C[Si](Cn1cncn1)(c1ccc(F)cc1)c1ccc(F)cc1 and report it.
31

Please give measured inhibition of growth at 50 ppm of the following entry: C[Si](C)(Cc1ccc(F)cc1)C[Si](C)(Cn1cncn1)c1ccc(F)cc1 (stereo not drawn)
40

Quickly give me recorded inhibition of growth at 50 ppm for CCOc1ccc([Si](C)(C)C[Si](C)(Cn2cncn2)c2ccc(F)cc2)cc1 (stereo not drawn)
74

Give the reported value of inhibition of growth at 50 ppm for this record: C=CC[Si](C)(Cn1cncn1)C[Si](CC=C)(c1ccc(OCC)cc1)c1ccc(OCC)cc1 (stereo not drawn)
70

For the compound COc1ccc([Si](C)(Cn2cncn2)C[Si](C)(C)c2ccc(Cl)cc2)cc1 (stereo not drawn) , give its measured inhibition of growth at 50 ppm value.
34

* * *

- Tested on: Physalospora baccae
- TEST METHOD NOTES: In vitro percent disease control (radii of spore growth on agar)
- Assay type: cell-based
- TEST PARAMETERS: 50 ppm; read-out: % controlled, Phy ba.
OBSERVABLE: inhibition of growth at 50 ppm (%)
Numeric only. Scale: %

Tell me measured inhibition of growth at 50 ppm for C[Si](C)(C[Si](Cn1cncn1)(c1ccc(Cl)cc1)c1ccc(Cl)cc1)c1ccc(F)cc1 please.
44

Retrieve inhibition of growth at 50 ppm measured for C=CC[Si](C)(Cn1cncn1)C[Si](CC=C)(CC=C)c1ccc(F)cc1 (stereo not drawn) and print it.
90

Give the reported value of inhibition of growth at 50 ppm for this record: C=CC[Si](C)(Cn1cncn1)C[Si](CC=C)(c1ccccc1)c1ccccc1 (stereo not drawn)
84

Name the recorded inhibition of growth at 50 ppm of the compound listed here: C[Si](C)(C)C[Si](Cn1cncn1)(c1ccc(Cl)cc1)c1ccc(Cl)cc1
90

Give reported inhibition of growth at 50 ppm value for C[Si](C)(Cc1ccc(F)cc1)C[Si](C)(Cn1cncn1)c1ccc(F)cc1 (stereo not drawn)
26

State its inhibition of growth at 50 ppm: C[Si](C)(C[Si](C)(Cn1cncn1)c1ccc(F)cc1)c1ccc(Cl)cc1 (stereo not drawn)
78

Return inhibition of growth at 50 ppm for the following compound: C=CC[Si](Cn1cncn1)(C[Si](CC=C)(c1ccccc1)c1ccc(-c2ccccc2)cc1)c1ccc(F)cc1 (stereo not drawn)
65

Give reported inhibition of growth at 50 ppm value for C[Si](C)(C)C[Si](C)(Cn1cncn1)c1ccc(F)cc1 (stereo not drawn)
56

Fill in reported inhibition of growth at 50 ppm for this entry: C=CC[Si](C)(Cn1cncn1)C[Si](CC=C)(c1ccccc1)c1ccc(F)cc1 (stereo not drawn)
82

* * *

- System: Rhizoctonia solani
- TEST METHOD NOTES: In vitro percent disease control (radii of spore growth on agar)
- Format: cell-based
- TEST PARAMETERS: Rhizoctonia solani, 50 ppm; read-out: % controlled, Rhy. so.
Please enter Satisfied where inhibition of growth at 50 ppm is greater than or equal to 60%, and Not satisfied where it is lower.

Hello, I need to know if C[Si](C)(C[Si](C)(Cn1cncn1)c1ccc(F)cc1)c1ccc(F)cc1 (stereo not drawn) has measured inhibition of growth at 50 ppm not below 60%. Thanks!
Not satisfied

// inclusive: inhibition of growth at 50 ppm at least 60%? input: C=CC[Si](C[Si](C)(Cn1cncn1)c1ccc(F)cc1)(c1ccc(F)cc1)c1ccc(F)cc1 (stereo not drawn)
Satisfied

Please check the record CCOc1ccc([Si](C)(C)C[Si](C)(Cn2cncn2)c2ccc(F)cc2)cc1 (stereo not drawn) and state if its inhibition of growth at 50 ppm is at or above 60%.
Satisfied

Quick check, inhibition of growth at 50 ppm >= 60%? C=CC[Si](C)(Cn1cncn1)C[Si](CC=C)(CC=C)CC=C (stereo not drawn)
Satisfied

Hi team, for C=CC[Si](Cn1cncn1)(C[Si](CC=C)(c1ccc(F)cc1)c1ccc(-c2ccccc2)cc1)c1ccc(F)cc1 (stereo not drawn) , is the recorded inhibition of growth at 50 ppm at or above 60%?
Satisfied

Dear colleague, could you confirm whether C[Si](C)(C[Si](C)(Cn1cncn1)c1ccc(Cl)cc1)c1ccc(Cl)cc1 (stereo not drawn) has inhibition of growth at 50 ppm at or above 60%?
Not satisfied

hey, is inhibition of growth at 50 ppm for this one >= 60%? C[Si](C)(C[Si](C)(Cn1cncn1)c1ccc(F)cc1)c1ccc(Cl)cc1 (stereo not drawn)
Satisfied

I'd appreciate it if you could say whether CCOc1ccc([Si](Cn2cncn2)(C[Si](C)(C)c2ccc(F)cc2)c2ccc(OCC)cc2)cc1 has inhibition of growth at 50 ppm at least equal to 60%.
Satisfied

* * *

- Test system: Fusarium moniliforme
- TEST METHOD NOTES: In vitro percent disease control (radii of spore growth on agar)
- Format: cell-based
- TEST PARAMETERS: 100 ppm
I'd appreciate it if you could supply % controlled, Fu. mo. values for the items below.
Numeric answer only, unit % assumed.

For Fusarium moniliforme, give the measured % controlled, Fu. mo. of the entry C[Si](C)(C)C[Si](C)(Cn1cncn1)c1ccc(F)cc1 (stereo not shown)
66

Return reported % controlled, Fu. mo. for target or system Fusarium moniliforme, item C[Si](C)(C[Si](Cn1cncn1)(c1ccc(F)cc1)c1ccc(F)cc1)c1ccc(Cl)cc1 .
56

Give measured % controlled, Fu. mo. for C[Si](C)(C[Si](C)(Cn1cncn1)c1ccc(F)cc1)c1ccc(F)cc1 (stereo not shown) (Fusarium moniliforme).
38

Enter recorded % controlled, Fu. mo. with Fusarium moniliforme for C[Si](C)(C)C[Si](Cn1cncn1)(c1ccc(F)cc1)c1ccc(F)cc1 here.
34

Report % controlled, Fu. mo. from Fusarium moniliforme testing of C=CC[Si](C)(Cn1cncn1)C[Si](CC=C)(c1ccccc1)c1ccc(F)cc1 (stereo not shown)
66

Answer with % controlled, Fu. mo. of C=CC[Si](C[Si](C)(Cn1cncn1)c1ccc(F)cc1)(c1ccc(F)cc1)c1ccc(F)cc1 (stereo not shown) measured for Fusarium moniliforme.
63

Return reported % controlled, Fu. mo. for target or system Fusarium moniliforme, item C=CC[Si](Cn1cncn1)(C[Si](CC=C)(c1ccccc1)c1ccc(-c2ccccc2)cc1)c1ccc(F)cc1 (stereo not shown) .
65

Identify measured % controlled, Fu. mo. obtained with Fusarium moniliforme for C[Si](C)(C[Si](C)(Cn1cncn1)c1ccc(F)cc1)c1ccc(-c2ccccc2)cc1 (stereo not shown) .
46

// fetch % controlled, Fu. mo. for C=CC[Si](C)(Cn1cncn1)C[Si](CC=C)(CC=C)CC=C (stereo not shown) ; system: Fusarium moniliforme
65

Answer with % controlled, Fu. mo. of C=CC[Si](C)(Cn1cncn1)C[Si](CC=C)(c1ccc(OCC)cc1)c1ccc(OCC)cc1 (stereo not shown) measured for Fusarium moniliforme.
100

Answer with % controlled, Fu. mo. of C[Si](C)(C)C[Si](Cn1cncn1)(c1ccc(Cl)cc1)c1ccc(Cl)cc1 measured for Fusarium moniliforme.
65

Report its % controlled, Fu. mo. with Fusarium moniliforme as the test system: CCOc1ccc([Si](C)(Cn2cncn2)C[Si](C)(C)c2ccc(F)cc2)cc1 (stereo not shown)
45

Quote Fusarium moniliforme % controlled, Fu. mo. for entry C[Si](C)(C[Si](C)(Cn1cncn1)c1ccc(F)cc1)c1ccc(Cl)cc1 (stereo not shown) .
69

Please look at C[Si](C)(C[Si](C)(Cn1cncn1)c1ccc(Cl)cc1)c1ccc(F)cc1 (stereo not shown) and tell me its recorded % controlled, Fu. mo. on Fusarium moniliforme.
58

Send back Fusarium moniliforme % controlled, Fu. mo. of C=CC[Si](Cn1cncn1)(C[Si](CC=C)(c1ccc(F)cc1)c1ccc(-c2ccccc2)cc1)c1ccc(F)cc1 (stereo not shown) only.
46

Name the value of % controlled, Fu. mo. reported for C=CC[Si](C[Si](C)(Cn1cncn1)c1ccc(OCC)cc1)(c1ccccc1)c1ccc(-c2ccccc2)cc1 (stereo not shown) when tested on Fusarium moniliforme.
80

Report measured % controlled, Fu. mo. on Fusarium moniliforme; entry: C=CC[Si](C)(Cn1cncn1)C[Si](CC=C)(c1ccccc1)c1ccccc1 (stereo not shown)
100

Report the value of % controlled, Fu. mo. obtained on Fusarium moniliforme for COc1ccc([Si](Cn2cncn2)(C[Si](C)(C)c2ccc(Cl)cc2)c2ccc(Cl)cc2)cc1 (stereo not shown) .
48

Answer briefly: % controlled, Fu. mo. recorded on Fusarium moniliforme for COc1ccc([Si](C)(Cn2cncn2)C[Si](C)(C)c2ccc(Cl)cc2)cc1 (stereo not shown)
41
